# procedure-text: Drug uptake in C57 mouse plasma at 10 mg/kg, po after 20 hrs by LC/MS analysis
# Type: ADME, organism-based
# Set-up: dose 10 mg/kg, route oral
Attribute: concentration at 20 h
experimental-endpoint: concentration at 20 h (nM)

[[record]]
structure_as_smiles = "CN(C)[C@]1(C)C[C@H](C(=O)N2CCC(c3ccnn3-c3ccc(F)c(Cl)c3)CC2)[C@@H](c2ccc(F)cc2F)C1"
experimental_endpoint = "concentration at 20 h"
assay_result = 305

[[record]]
structure_as_smiles = "C[C@@]1(N)C[C@H](C(=O)N2CCC(c3ccnn3-c3ccc(F)c(Cl)c3)CC2)[C@@H](c2ccc(F)cc2F)C1"
experimental_endpoint = "concentration at 20 h"
assay_result = 185

[[record]]
structure_as_smiles = "Cc1cc(C2CCN(C(=O)[C@@H]3C[C@@](C)(N)C[C@H]3c3ccc(F)cc3F)CC2)n(-c2ccc(F)c(Cl)c2)n1"
experimental_endpoint = "concentration at 20 h"
assay_result = 246


FYI, the data here is from ChEMBL document CHEMBL2029344.
